Each item that follows carries a reported cell viability.
Test system: P12-Ichikawa
Test: cell viability relative to DMSO control; higher = less cytotoxic
Conditions: RPMI 5 mM glucose + 10% dialyzed FBS; 48 h; 0.0632 µM

molecule: CCN1\C=C(C(O)=O)/C(=O)C2=C1C(=C(N3CCNC(C)C3)C(=C2)F)F (stereo not given)
cell viability (%): 107
//
molecule: CCc1nc(N)nc(N)c1-c1ccc(Cl)cc1
cell viability (%): 95.3
//
molecule: COc1cccc(N(C)C(=S)Oc2ccc3c(c2)CCCC3)n1
cell viability (%): 99.7
//
molecule: CN(C)C(=O)[C@H](O)[C@H](Cc1ccccc1)NC(=O)c1cc2cc(Cl)ccc2[nH]1
cell viability (%): 121
//
molecule: CN(C)CCc1c[nH]c2ccc(Cn3cncn3)cc12
cell viability (%): 97.3
//
molecule: COCC(=O)NC/C=C/c1ccc2ncnc(Nc3ccc(Oc4ccc(C)nc4)c(C)c3)c2c1
cell viability (%): 105
//
molecule: CN(CC(=O)N(Cc1ccc(C2CCCCC2)cc1)c1ccc(C(=O)O)c(O)c1)[S+](=O)([O-])c1c(F)c(F)c(F)c(F)c1F
cell viability (%): 96.6
//
molecule: COc1ccc(-n2c(C)c([N+](=O)[O-])c3ccc(O)cc32)cc1
cell viability (%): 114
//
molecule: C[C@@H](Cc1cc2c(c(C(N)=O)c1)N(CCCO)CC2)NCCOc1ccccc1OCC(F)(F)F
cell viability (%): 111
//
molecule: NC(=O)c1nnn(Cc2cc(Cl)c(C(=O)c3ccc(Cl)cc3)c(Cl)c2)c1N
cell viability (%): 123
//
molecule: CCOc1cc(C(=O)Nc2ccc(Cl)c(-c3nc4ccccc4[nH]3)c2)cc(OCC)c1OCC
cell viability (%): 85.8
//
molecule: C[C@H](NC(=O)[C@@H](O)c1cc(F)cc(F)c1)C(=O)N[C@@H]1C(=O)N(C)c2ccccc2-c2ccccc21
cell viability (%): 106
//
molecule: O=C(NOCC1CC1)c1ccc(F)c(F)c1Nc1ccc(I)cc1Cl
cell viability (%): 109
//
molecule: CC(=O)OCC(=O)[C@@]1(O)CC[C@H]2[C@@H]3CCC/4=C/C(=O)/C=C\[C@]4(C)[C@H]3[C@@H](O)C[C@]12C
cell viability (%): 92.5
//
molecule: CCOc1ccccc1N/N=C1/C(=O)N(c2nc(-c3ccccc3)cs2)N=C1C
cell viability (%): 113
//
molecule: Cc1nc(-c2ccc(-c3ccc(C(=O)N4CCc5cc6c(cc54)C4(CCN(C)CC4)CO6)cc3)c(C)c2)no1
cell viability (%): 110
//
molecule: Cc1nc2ccc(CN(C)c3ccc(C(=O)N[C@@H](CCC(=O)O)C(=O)O)s3)cc2c(=O)[nH]1
cell viability (%): 108
//
molecule: CCC(=O)NC[C@H](Cc1ccc(OCCc2nc(-c3ccccc3)oc2C)cc1)N/C(C)=C\C(=O)c1ccc(C(F)(F)F)cc1
cell viability (%): 99.3
//
molecule: CC1=CC/2=C(C=C1C)N(C[C@@H](O)[C@@H](O)[C@@H](O)CO)C/3=N/C(=O)NC(=O)C3=N2
cell viability (%): 123
//
molecule: CCCCN1CCC(CNC(=O)c2c3n(c4ccccc24)CCCO3)CC1
cell viability (%): 113

From: the supplement of paper PMC11451515
